Taken from patent US4711898A.

System: SRS-A (slow reacting substance of anaphylaxis) contraction of ileum
ASSAY NOTES: Anti-SRS-A action using ileus of guinea pigs
Type: cell-based, Hartley strain male guinea pigs
CONDITION INFO: Cavia porcellus, 5 min, 1/1000 mM; guinea pig ileum; SRS-A 20 units; compound five minutes before; read-out: 1/1000 mM SRS-A Inhibition Ratio %
MEASURED QUANTITY: inhibition at 1 µM (%)
Report the value in % with no unit label.

Summary for this compound, COC(=O)c1ccc2[nH]c(-c3ccccc3C)cc(=O)c2c1 : inhibition at 1 µM is 29.1

Summary for this compound, COC(=O)c1ccc2c(c1)C(=O)C(C)C(c1ccccc1)=N2 (centres unmarked) : inhibition at 1 µM is 54.8

Summary for this compound, Cc1ccc(-c2cc(=O)c3cccc(C(=O)O)c3[nH]2)cc1 : inhibition at 1 µM is 26.7

Summary for this compound, O=C(O)c1ccc2[nH]c(-c3ccncc3)cc(=O)c2c1 : inhibition at 1 µM is 25

Summary for this compound, Cc1ccccc1-c1cc(=O)c2cc(C(=O)O)ccc2[nH]1 : inhibition at 1 µM is 17.4

Summary for this compound, CCOC(=O)c1cccc2c(=O)cc(-c3ccc(Cl)cc3Cl)[nH]c12 : inhibition at 1 µM is 55.6

Summary for this compound, COc1ccc(-c2cc(=O)c3cccc(C(=O)OCCO)c3[nH]2)cc1OC : inhibition at 1 µM is 18.3

Summary for this compound, CCOC(=O)c1cccc2c(=O)cc(-c3ccc(OC)cc3)[nH]c12 : inhibition at 1 µM is 20.3

Summary for this compound, CCCOC(=O)c1cccc2c(=O)cc(-c3ccccc3Cl)[nH]c12 : inhibition at 1 µM is 7.8

Summary for this compound, O=C(O)c1cccc2c(=O)cc(-c3cccc(Cl)c3)[nH]c12 : inhibition at 1 µM is 20.7

Summary for this compound, O=C(O)c1ccc2[nH]c(-c3ccc(Cl)cc3Cl)cc(=O)c2c1 : inhibition at 1 µM is 25.6
